Record form. Attribute: lowest phenotypically active concentration. Fill in for each entry.
- System: WPMY1-TP53BP1-CLTA
- ASSAY_EXPLANATION: lowest phenotypically active concentration; higher = less potent
- TEST_PARAMETERS: treatment time: 24 h
One number for each entry, in µM.

Check out these entries, answers already filled in.
MOLECULE | RECORDED_NUMBER
CC/C(=C(\CC)c1ccc(O)c(CN(CC)CC)c1)c1ccc(O)c(CN(CC)CC)c1 | 9
COc1cc2c(NC3CCN(C(C)C)CC3)nc(C3CCCCC3)nc2cc1OCCCN1CCCC1 | 1
Nc1cc(N)c(N)cc1N | 9

Then there is this molecule:
Need lowest phenotypically active concentration of CN1CCCC(n2nc(Cc3ccc(Cl)cc3)c3ccccc3c2=O)CC1 (stereo not given) , thanks.
9

###

Record form. Attribute: phenotypically active. Fill in for each entry.
- Test system: A549-ACTB-RAB5A
- ASSAY_EXPLANATION: phenotypically active (imaging signature differs from DMSO and reproducible) at any of 0.3-9 uM (binary (1 = active, 0 = inactive)); higher = active
- TEST_PARAMETERS: treatment time: 24 h
Structures can show the parent of a compound that is named as a salt.

Check out these entries, answers already filled in.
MOLECULE | phenotypically active
COc1ccc(CCN(C)CCCC(C#N)(c2ccc(OC)c(OC)c2)C(C)C)cc1OC (stereo unspecified) | 1 (active)
CC[C@H](C)C(=O)O[C@H]1C[C@H](O)C=C2C=C[C@H](C)[C@H](CC[C@@H](O)C[C@@H](O)CC(=O)O)[C@H]21 | 0 (inactive)

I need phenotypically active for every entry listed below, if you could help.
1. CNC(=O)c1ccc(C)c(-n2c(C)cc(OCc3ccc(F)cc3F)c(Br)c2=O)c1
2. Nc1ccc(N=Nc2ccccc2)c(N)n1
3. Cc1nnc(-c2ccc3occ(-c4ccc(S(C)=O)cc4)c3c2)o1 (stereo unspecified)

1: 0 (inactive); 2: 1 (active); 3: 1 (active)

I need phenotypically active for every entry listed below, if you could help.
1. NS(=O)(=O)Cc1noc2ccccc12 [zonisamide]
2. O=C(O)Cc1cccc(OCCCN(Cc2cccc(C(F)(F)F)c2Cl)CC(c2ccccc2)c2ccccc2)c1 [GW 3965 hydrochloride]
3. CC[C@H](CO)Nc1nc(NCc2ccccc2)c2ncn(C(C)C)c2n1
4. OC[C@H]1O[C@@H](n2cnc3c(NCc4ccco4)ncnc32)[C@H](O)[C@@H]1O [Kinetin riboside]

0 (inactive)
1 (active)
1 (active)
1 (active)

###

- Tested on: A549-TP53BP1-CLTA
- ASSAY_EXPLANATION: phenotypically active (imaging signature differs from DMSO and reproducible) at any of 0.3-9 uM (binary (1 = active, 0 = inactive)); higher = active
- TEST_PARAMETERS: treatment time: 24 h
Valid outcomes are listed here; reply with one: class 1 for active, class 0 for inactive

Outcome? CCOc1cc(CC(=O)N[C@@H](CC(C)C)c2ccccc2N2CCCCC2)ccc1C(=O)O [repaglinide]
class 0

Outcome? CC1=Nc2ccc(Cl)cc2S(=O)(=O)N1 [diazoxide]
class 0

Outcome? COc1ccc(CC2c3cc(OC)c(OC)cc3CC[N+]2(C)CCC(=O)OCCCCCOC(=O)CC[N+]2(C)CCc3cc(OC)c(OC)cc3C2Cc2ccc(OC)c(OC)c2)cc1OC (centres undefined) [Atracurium besilate]
class 0

Outcome? N#Cc1c(C2CCNCC2)cc(-c2c(O)cccc2OCC2CC2)nc1N
class 1

Outcome? Nc1nc(Cl)nc2c1ncn2[C@@H]1O[C@H](CO)[C@@H](O)[C@@H]1F [clofarabine]
class 1

Outcome? CC(C)(C)NC(=O)[C@@H]1CN(Cc2cccnc2)CCN1C[C@@H](O)C[C@@H](Cc1ccccc1)C(=O)N[C@H]1c2ccccc2C[C@H]1O [indinavir]
class 0

Outcome? CN(C)CCCN1c2ccccc2Sc2ccc(C(F)(F)F)cc21 [triflupromazine]
class 0

Outcome? Cc1cc(F)c(Nc2ncnc3cc(OCc4ccccc4)ccc23)cc1O
class 0

Outcome? CO[C@@H]1[C@H](N(C)C(=O)c2ccccc2)C[C@H]2O[C@]1(C)n1c3ccccc3c3c4c(c5c6ccccc6n2c5c31)C(=O)NC4
class 1

Outcome? CCCCOc1c(C(=O)c2c(F)cc(C)cc2F)cnc2[nH]ncc12
class 0

Outcome? C[C@@H]1CN(CC(=O)Nc2ccc3c(c2)Cc2cccc(-c4cc(=O)cc(N5CCOCC5)o4)c2S3)C[C@H](C)O1
class 1

Outcome? O=C(Nc1ccc(CN2CCOCC2)cc1)c1ccc(-c2cccc(Cl)c2)o1
class 0

Outcome? CCCNC(=O)NS(=O)(=O)c1ccc(Cl)cc1 [chlorpropamide]
class 0

Outcome? COc1cc([C@@H]2c3cc4c(cc3[C@@H](O[C@@H]3O[C@@H]5CO[C@@H](C)O[C@H]5[C@H](O)[C@H]3O)[C@H]3COC(=O)[C@H]23)OCO4)cc(OC)c1O [etoposide]
class 1

Outcome? C[C@](N)(Cc1ccc(O)c(O)c1)C(=O)O [methyldopa]
class 0

Outcome? NC(=O)c1ccc(I)c([N+](=O)[O-])c1
class 0

Outcome? Cn1cc(-c2[nH]c3cc(NC(=O)[C@H](N)C4CCCCC4)cc4c3c2C=NNC4=O)cn1
class 1

Outcome? Cc1cc(Nc2nc(N[C@@H](C)c3ncc(F)cn3)ncc2Cl)n[nH]1
class 1

Outcome? COc1ccc(C2=N[C@H](c3ccc(Cl)cc3)[C@H](c3ccc(Cl)cc3)N2C(=O)N2CCNC(=O)C2)c(OC(C)C)c1 [Nutlin-3]
class 0

Outcome? COc1ccc(-c2ccc3ncc4c(c3c2)n(-c2ccc(N3CCNCC3)c(C(F)(F)F)c2)c(=O)n4C)cn1
class 1

Outcome? CCC[C@H](N[C@@H](C)C(=O)N1[C@H](C(=O)O)C[C@@H]2CCCC[C@@H]21)C(=O)OCC [perindopril]
class 0

Outcome? O=C1CC(c2ccc(O)cc2)Oc2cc(O)cc(O)c21 (centres undefined) [Naringenine]
class 0

Source of measurements: the supplement of paper PMC7411054
